Measured melting point, listed per entry.
attributeMeasured: melting point

[[record]]
molecule = "CC(C)n1cnc2c(Cl)nc(I)nc21"
attributemeasured = "melting point"
result = "104 °C"

[[record]]
molecule = "CCCn1nc2c(N)nc3ccccc3c2c1CCNC(=O)Nc1ccc(F)cc1"
attributemeasured = "melting point"
result = "201 to 202 °C"

[[record]]
molecule = "CCC(CC)(c1ccc(F)cc1)c1c[nH]c2c(NS(C)(=O)=O)cccc12"
attributemeasured = "melting point"
result = "137 to 138 °C"

[[record]]
molecule = "C[C@H](NC(=O)[C@@H]1CCCN1CCC(=O)O)C(=O)N1CCC[C@H]1C(=O)O"
attributemeasured = "melting point"
result = "133 to 136 °C"

[[record]]
molecule = "COC(=O)CCNc1cccc(CNC(=O)C2Cc3ccccc3N2S(=O)(=O)c2ccc(-c3cccc(C(F)(F)F)c3)cc2)c1 (configuration not stated)"
attributemeasured = "melting point"
result = "57 °C"

[[record]]
molecule = "C=CCNC(=O)Nc1nn(Cc2ccccc2)cc1C(=O)OCC"
attributemeasured = "melting point"
result = "77 to 78 °C"

[[record]]
molecule = "Oc1cccc(CCc2nc3ccccc3s2)c1"
attributemeasured = "melting point"
result = "129 to 130 °C"

